# Test system: CEM cells HIV-1 protection, formazan growth assay
# testMethodNotes: NCI AIDS Antiviral Assay
# testConditions: measured here: growth of uninfected CEM cells
pIC50: −log10 of the molar value.
Label true for high-side pIC50 (at or above 5) and false for low-side pIC50 (below it).

Hello, I need to know if `O=C(O)c1ccccc1C(=O)CCC(=O)c1ccccc1C(=O)O` has measured pIC50 not below 5. Thanks!
false

`CC(C)OP(=S)(NC(=S)c1ccccc1)OC(C)C` , same question.
false

Quick one: CSC1=C(c2ccc(Cl)cc2)SC(N2CCCCC2)N1c1ccc([N+](=O)[O-])cc1 (configuration not stated)
false

COc1ccc2c(c1)CC1Cc3ccccc3CCN1C2 (configuration not stated) ?
false

Okay, and Cc1nn(C(=O)Cc2ccccc2)c2c1C(c1ccccc1O)SC(N)=N2 (configuration not stated) ?
false

Thanks! And `Oc1ccc(C(=C(Br)c2ccccc2)c2ccc(O)cc2)cc1` ?
true

Next record, please: `CCOC(=O)c1nc2cc(F)c(F)cc2nc1NCc1cc(OC)c(OC)c(OC)c1`
false

Try the molecule `COc1cc(O)c2c(=O)c(OC)c(-c3ccc(OC)c(OC)c3)oc2c1.[Co]`
false

Then this molecule: `COc1cc(/C=C2\CC/C(=C\c3ccc(O)c(OC)c3)C2=O)ccc1O`
true

Also C#CCOCC12C=CC(O1)C1C(=O)OCC12 (configuration not stated) , if possible.
false

Field entry: `CC1=C(C(=O)NNS(=O)(=O)c2ccc(C)cc2)CC(C(=O)NNS(=O)(=O)c2ccc(C)cc2)=C(C)N1`
false

Further, for `CCOC(=O)c1cc(N/N=C2/CCCNC2=O)c[nH]1` ?
false

Could you do the same for C=CCN=C1N=C(C)C(C(=O)OCC)S1 (configuration not stated) , please?
false

How about CC1=NN(C(=O)CC(=O)Nc2ccc(Cl)cc2)C(=O)C1N=Nc1ccc(C(=O)O)cc1 (configuration not stated) ?
false

And then `NC(=S)N/N=C/c1cccc(CC(O)(C(F)(F)F)C(F)(F)F)n1` , what is it?
true

Follow-up entry: `C[N+](C)(C)CCS(=O)(=O)[O-]`
false

Another molecule to check: `CC1(C)COC(c2cccnc2/C=N/O)=N1`
false

Same read-out for `COc1cc(CN=c2nc(N(C)C)ss2)cc(OC)c1OC` ?
true
